- System: hMC4R/TM6 hMC2R
- Method Description: […]-NDP-MSH displacement on transfected cells
- Type: cell-based, Homo sapiens
- Test Settings: read-out: THIQ Ki; whole HEK293 cells, MEM with 0.2% BSA, 1 h
Reported Property: Ki (nM)

>>> observed_value("O=C(N[C@H](Cc1ccc(Cl)cc1)C(=O)N1CCC(Cn2cncn2)(C2CCCCC2)CC1)[C@H]1Cc2ccccc2CN1")
5.3

* * *

- System: hMC4R/TM5 hMC2R
- Method Description: […]-NDP-MSH displacement on transfected cells
- Format: cell-based, Homo sapiens
- Test Settings: read-out: THIQ Ki; whole HEK293 cells, MEM with 0.2% BSA, 1 h
Reported Property: Ki

>>> observed_value("O=C(N[C@H](Cc1ccc(Cl)cc1)C(=O)N1CCC(Cn2cncn2)(C2CCCCC2)CC1)[C@H]1Cc2ccccc2CN1")
"6.7 nM"

* * *

- System: hMC4R/TM6 hMC2R
- Method Description: cAMP accumulation
- Format: cell-based, Homo sapiens
- Test Settings: read-out: THIQ (EC50 (nM)); HEK293 cells, 1 h, 37°C, 1 mM IBMX; agonist
Reported Property: EC50 (nM)

>>> observed_value("O=C(N[C@H](Cc1ccc(Cl)cc1)C(=O)N1CCC(Cn2cncn2)(C2CCCCC2)CC1)[C@H]1Cc2ccccc2CN1")
2.8
